Provenance of the data: the RNAGym collection of RNA variant scans (doi:10.1038/nmeth.2970)

B1: NELF-E aptamer (parent)
chain: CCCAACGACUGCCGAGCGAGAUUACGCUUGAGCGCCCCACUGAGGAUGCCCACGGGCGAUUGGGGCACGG

# Variants of: B1
# Test description: HiTS-RAP
# Condition description: with NELF-E (Drosophila)
Hi! Just check whether Kd is below 7 nM. Below gives t, equal or above gives f.

Below, 2 variants whose answers are already recorded.
>  <Variant>
U29G G42A

>  <Group label>
f

$$$$
>  <Variant>
C9G C12U

>  <Group label>
t

$$$$

hey, is Kd for U22G C53A lower than 7 nM or not?
t

hey, is Kd for C9G A52U lower than 7 nM or not?
f

hey, is Kd for U29G C35G lower than 7 nM or not?
t

hey, is Kd for A8U C33U lower than 7 nM or not?
t

hey, is Kd for A8U C66U lower than 7 nM or not?
t

hey, is Kd for C6G U22C lower than 7 nM or not?
t

hey, is Kd for C17G A21G lower than 7 nM or not?
t

hey, is Kd for A8C lower than 7 nM or not?
t

hey, is Kd for A4G G7C lower than 7 nM or not?
f

hey, is Kd for A5G C6A lower than 7 nM or not?
t

hey, is Kd for U23G G58U lower than 7 nM or not?
f

hey, is Kd for U29G A46U lower than 7 nM or not?
f
